Data provenance: patent US20230183352A1

Some binders, each annotated with its measured FACS reading.
molecular target: T1, Claudin 18.2 (CLDN18.2), expressed on CHOS-CLDN 18.2 / HEK293-CLDN 18.2 / HCC827-CLDN 18.2 cells (human, UniProt P56856-2 1-261); experiment: FACS, CHOS-CLDN18.2 cells, 1.250 µg/ml
T1 construct: whole, on cells; The species is not repeated for the CHOS-CLDN 18.2 cells; also called claudin-18A2
// keep it numeric: no unit symbol after the value

Before answering, review these 2 worked examples.
QP14441441 (antibody, human IgG1, kappa, V domains shown, Humanized from QP192193) VH: QVQLVQSGAEVKKPGASVKVSCKASGYAFSSYWMNWVRQAPGQGLEWIGQIYPGNGDTTYNGKFKGRVTMTADKSTSTVYMELSSLRSEDTAVYYCARFVKGNAMDYWGQGTLVTVSS VL: DIVMTQSPDSLAVSLGERATISCKSSQSLLNSGNQKNYLTWYQQKPGQPPKLLIYWASTRESGVPDRFSGSGSGIDFTLTISSVQAEDVAVYYCQNAYSYPFTFGQGTKLEIKR; 125000
QP14451440 (antibody, human IgG1, kappa, V domains shown, Humanized from QP192193; also called QP14401445) VH: QVQLVQSGAEVKKPGASVKVSCKASGYAFSSYWMNWVRQAPGQGLEWIGQIYPGNGDTTYNGKFKGRVTMTADKSTSTVYMELSSLRSEDTAVYFCARFVKGNAMDYWGQGTLVTVSS VL: DIVMTQSPDSLAVSLGERATISCKSSQSLLNSGNQKNYLTWYQQKPGQPPKLLIYWASTRESGVPDRFSGSGSGTDFTLTISSLQAEDVAVYYCQNAYSYPFTFGQGTKLEIKR; 123000

Shift focus to the following entry.
Which FACS reading is reported for this binder? QP024025 (antibody, human IgG1, V domains shown, also called IMAB362; 175D10(IMAB362)) VH: QVQLQQPGAELVRPGASVKLSCKASGYTFTSYWINWVKQRPGQGLEWIGNIYPSDSYTNYNQKFKDKATLTVDKSSSTAYMQLSSPTSEDSAVYYCTRSWRGNSFDYWGQGTTLTVSS VL: DIVMTQSPSSLTVTAGEKVTMSCKSSQSLLNSGNQKNYLTWYQQKPGQPPKLLIYWASTRESGVPDRFTGSGSGTDFTLTISSVQAEDLAVYYCQNDYSYPFTFGSGTKLEIK
63700
